# testSystem: Gamma-aminobutyric acid receptor subunit alpha-1 (Homo sapiens) (UniProt P14867)
# Sequence (whole entry): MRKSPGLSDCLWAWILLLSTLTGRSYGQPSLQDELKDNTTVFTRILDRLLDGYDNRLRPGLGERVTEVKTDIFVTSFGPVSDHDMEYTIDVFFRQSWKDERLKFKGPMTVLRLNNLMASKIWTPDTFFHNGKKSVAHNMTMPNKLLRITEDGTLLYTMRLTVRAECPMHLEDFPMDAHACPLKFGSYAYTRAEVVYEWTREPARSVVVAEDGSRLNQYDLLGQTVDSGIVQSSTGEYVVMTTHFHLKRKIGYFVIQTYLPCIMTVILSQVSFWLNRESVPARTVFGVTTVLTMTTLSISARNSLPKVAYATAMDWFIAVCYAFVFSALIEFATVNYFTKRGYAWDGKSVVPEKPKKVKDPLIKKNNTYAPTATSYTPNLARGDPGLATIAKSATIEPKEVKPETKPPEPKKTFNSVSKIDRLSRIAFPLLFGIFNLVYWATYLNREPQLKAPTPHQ
# methodSummary: Efficacy at gamma-aminobutyric acid A receptor, alpha 1-ion channel relative to chlorodiazepoxide.
measuredParameter: Efficacy

Solved cases (2 shown):
- smilesString: "Cc1csc(-c2cc(-c3ccc(Cl)cc3)c3n(c2=O)CCCc2ccncc2-3)n1"
  Efficacy: 0.17
- smilesString: "Cc1csc(-c2cc(-c3ccccc3)c3n(c2=O)CCCc2ccncc2-3)n1"
  Efficacy: 0.1

P = Cc1csc(-c2cc(-c3cccnn3)c3n(c2=O)CCCc2ccncc2-3)n1
Q = Cc1csc(-c2cc(-c3cccnc3)c3n(c2=O)CCCc2ccncc2-3)n1
R = Cc1csc(-c2cc(-c3ccncc3)c3n(c2=O)CCCc2ccncc2-3)n1
S = Cc1csc(-c2cc(-c3ccccc3F)c3n(c2=O)CCCc2ccncc2-3)n1
Order by Efficacy, ascending. In plain terms: list the labels in the order you were asked to.
P, Q, R, S
(P: -0.33, Q: -0.16, R: 0, S: 0.56)

* * *

# testSystem: GABA-A receptor; alpha-1/beta-3/gamma-2 (Homo sapiens, UniProt P14867+P18507+P28472)
# Sequence (P14867 whole entry): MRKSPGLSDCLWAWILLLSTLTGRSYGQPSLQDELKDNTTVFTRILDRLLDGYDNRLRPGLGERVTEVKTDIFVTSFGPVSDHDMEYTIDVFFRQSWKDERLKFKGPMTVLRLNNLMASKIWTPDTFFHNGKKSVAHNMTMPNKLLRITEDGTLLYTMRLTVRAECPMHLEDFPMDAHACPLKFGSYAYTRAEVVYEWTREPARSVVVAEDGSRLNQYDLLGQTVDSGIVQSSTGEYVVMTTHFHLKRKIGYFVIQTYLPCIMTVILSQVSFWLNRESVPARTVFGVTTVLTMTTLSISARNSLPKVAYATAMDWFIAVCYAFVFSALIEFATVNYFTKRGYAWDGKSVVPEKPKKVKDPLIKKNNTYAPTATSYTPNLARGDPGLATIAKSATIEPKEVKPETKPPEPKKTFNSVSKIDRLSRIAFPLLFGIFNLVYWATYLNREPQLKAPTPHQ
# Sequence (P18507 whole entry): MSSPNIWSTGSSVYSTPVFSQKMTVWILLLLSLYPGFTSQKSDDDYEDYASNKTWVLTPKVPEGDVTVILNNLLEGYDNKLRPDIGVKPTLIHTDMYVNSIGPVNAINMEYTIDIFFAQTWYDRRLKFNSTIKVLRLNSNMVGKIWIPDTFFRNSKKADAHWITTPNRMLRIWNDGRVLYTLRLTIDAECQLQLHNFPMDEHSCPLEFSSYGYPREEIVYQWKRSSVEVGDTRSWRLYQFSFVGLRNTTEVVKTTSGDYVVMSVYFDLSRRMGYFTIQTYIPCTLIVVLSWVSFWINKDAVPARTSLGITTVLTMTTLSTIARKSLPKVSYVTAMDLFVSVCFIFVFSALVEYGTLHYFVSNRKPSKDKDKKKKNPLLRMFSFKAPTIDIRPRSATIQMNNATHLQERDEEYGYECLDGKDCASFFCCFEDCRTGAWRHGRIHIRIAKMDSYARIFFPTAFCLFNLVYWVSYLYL
# Sequence (P28472 whole entry): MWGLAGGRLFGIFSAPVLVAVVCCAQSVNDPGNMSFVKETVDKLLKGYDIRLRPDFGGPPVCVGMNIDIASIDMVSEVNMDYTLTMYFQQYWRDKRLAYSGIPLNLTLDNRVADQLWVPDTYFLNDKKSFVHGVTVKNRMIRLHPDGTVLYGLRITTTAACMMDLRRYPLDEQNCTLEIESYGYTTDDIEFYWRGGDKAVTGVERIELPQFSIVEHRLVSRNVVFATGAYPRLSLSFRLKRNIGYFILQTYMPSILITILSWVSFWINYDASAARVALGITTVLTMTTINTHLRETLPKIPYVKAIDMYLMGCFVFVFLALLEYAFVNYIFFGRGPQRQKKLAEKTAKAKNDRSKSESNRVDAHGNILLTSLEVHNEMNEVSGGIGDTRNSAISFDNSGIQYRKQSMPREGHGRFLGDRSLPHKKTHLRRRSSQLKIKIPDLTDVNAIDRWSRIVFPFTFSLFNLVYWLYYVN
# methodSummary: Displacement of [3H]Ro-151788 from human GABA-A receptor alpha-1-beta-3-gamma-2 subunits expressed in L(tk) cells
# Format: cell-based
pKi: −log10 of the molar value.
measuredParameter: pKi

A = Cc1csc(-c2cc(-c3nccn3C)c3n(c2=O)CCCc2ccncc2-3)n1
B = Cc1csc(-c2cc(-c3ccc(Cl)cc3)c3n(c2=O)CCCc2ccncc2-3)n1
Of the pair A and B , name the member with the lesser recorded pKi. Refer to your chosen item by its label in the answer.
A
(A: 7.84, B: 9.70)
